- TARGET_OF_ASSAY: human sodium-dependent glucose transporter 2 (SGLT2, SLC5A2) (Homo sapiens, UniProt P31639)
- Construct: Bases 21 to 2039 correspond to the complete coding region of human SGLT2
- Sequence (P31639 1-672): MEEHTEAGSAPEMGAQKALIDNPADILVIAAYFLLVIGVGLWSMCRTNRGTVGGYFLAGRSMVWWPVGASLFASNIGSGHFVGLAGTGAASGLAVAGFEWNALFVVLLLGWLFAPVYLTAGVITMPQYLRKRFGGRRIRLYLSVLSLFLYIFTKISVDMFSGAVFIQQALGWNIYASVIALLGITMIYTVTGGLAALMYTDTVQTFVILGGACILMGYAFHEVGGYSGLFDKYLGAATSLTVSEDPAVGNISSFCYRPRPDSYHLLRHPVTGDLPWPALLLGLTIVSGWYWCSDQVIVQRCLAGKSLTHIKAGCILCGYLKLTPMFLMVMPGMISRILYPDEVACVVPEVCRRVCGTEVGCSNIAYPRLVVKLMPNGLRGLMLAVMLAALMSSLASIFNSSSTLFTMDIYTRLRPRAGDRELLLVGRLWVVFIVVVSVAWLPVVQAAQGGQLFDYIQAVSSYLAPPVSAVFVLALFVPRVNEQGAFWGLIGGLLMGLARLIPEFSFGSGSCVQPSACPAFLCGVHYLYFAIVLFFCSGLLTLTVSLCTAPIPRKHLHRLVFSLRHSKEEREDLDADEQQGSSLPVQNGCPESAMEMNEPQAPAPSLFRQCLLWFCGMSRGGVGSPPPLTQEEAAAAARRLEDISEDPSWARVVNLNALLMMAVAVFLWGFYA
- PROCEDURE_DETAILS: Inhibition of the transport activity of human SGLT2 in vitro (α-MDG uptake in CHO-TRex-hSGLT2 cells)
- APPLIED_CONDITIONS: 50 μM α-MDG, 120 min at 37° C.
pIC50: −log10 of the molar value.
Readings of pIC50 for the listed compounds
MEASURED_PARAMETER: pIC50

COMPOUND	ENDPOINT_RESULT
CCOC(=O)OCC1OC(c2ccc(Cl)c(Cc3ccc(OC)cn3)c2)C(O)C(O)C1(F)F (stereo not shown) [Example 37]	4.95
OCC1OC(c2ccc(Cl)c(Cc3cc4ccccc4s3)c2)C(O)C(O)C1F (stereo not shown) [Example 7]	7.82
CCOC(=O)OC[C@H]1O[C@@H](c2ccc(OC(F)(F)F)c(Cc3ccc(OC)cc3)c2)[C@H](O)[C@@H](O)C1(F)F [Example 41]	4.89
CCOC(=O)OCC1OC(c2ccc(Cl)c(Cc3ccc(OCC)cc3)c2)C(O)C(O)C1F (stereo not shown) [Example 16]	5.57
CCc1ccc(Cc2cc(C3OC(CO)C(F)(F)C(O)C3O)ccc2Cl)cc1 (stereo not shown) [Example 1]	7.92
CCc1ccc(Cc2cc(C3OC(CO)C(F)C(O)C3O)ccc2C)cc1 (stereo not shown) [Example 61]	8.00
CCOc1ccc(Cc2cc(C3OC(CO)C(F)(F)C(O)C3O)ccc2Cl)cc1 (stereo not shown) [Example 2]	7.74
CCc1ccc(Cc2cc(C3OC(CO)C(F)C(O)C3O)ccc2Cl)cc1 (stereo not shown) [Example 3]	8.10
CCOC(=O)OC1C(O)C(c2ccc(Cl)c(Cc3ccc(OCC)cc3)c2)OC(CO)C1(F)F (stereo not shown) [Example 19]	6.78
CCOC(=O)OC[C@H]1O[C@@H](c2ccc(C(F)(F)F)c(Cc3ccc(OC)cc3)c2)[C@H](O)[C@@H](O)C1(F)F [Example 49]	5.10
CCOC(=O)OCC1OC(c2ccc(OC)c(Cc3ccc(OC)cc3)c2)C(O)C(O)C1F (stereo not shown) [Example 12]	5.57
OC[C@H]1O[C@@H](c2ccc(Cl)c(Cc3ccc(Cl)cc3)c2)[C@H](O)[C@@H](O)[C@@H]1F [Example 44]	7.62
COc1ccc(Cc2cc(C3OC(CO)C(F)C(O)C3O)ccc2Cl)nc1 (stereo not shown) [Example 36]	6.52
CCOC(=O)OCC1OC(c2ccc(OC)c(Cc3ccc(OC)cc3)c2)C(O)C(O)C1(F)F (stereo not shown) [Example 14]	5.80
COc1ccc(Cc2cc(C3OC(CO)C(F)(F)C(O)C3O)ccc2Cl)cc1 (stereo not shown) [Example 22]	8.05
